Reported koff values follow for various binders
# target: T1, AAV8 (adeno-associated virus 8)
# T1 construct: also called adeno-associated virus serotype 8
# test_details: SPR, AAV amine-coupled to CM5 chip;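 further: nanobodies flowed as analyte at seven concentrations spanning 1–100 nM over immobilized AAV (500–800 RU), kinetic constants derived by fitting the binding curves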
Unit s⁻¹ implied. Number only.

Here's what some known entries look like.
A4-095 (VHH) VHH: VQLQESGGGLVQPGGSLRLSCAASGSSFSANTMGWYRQAPGKQRELVATITRGGNTNYGDSVKGRFTISRDNAKDTVYLQMNSLRPEDTAVYYCHIDEIRESTWTTSNLWGQGTQVTVSS    0.00026
A4-061 (VHH) VHH: VQLQESGGGLVQPGGSLRLSCAASGSRFSLNTMGWYRQAPGKQRELVATVTRGGSTNYANSVKGRFTISRDNAKNTVYLQMNSLRPEDTAVYYCHVDEVRQSTWTTSNLWGQGTQVTVSS    0.00057
A4-062 (VHH) VHH: VQLQESGGGLVQAGGSLRLSCAASGSSFSINAMGWYRQAPGKQRELVATVTRGGTTNYADSVKGRFTISRDNPKNTVYLQMNSLRPEDTAVYYCHLDEVRESSWTTSNLWGQGTQVTVSS    0.00019
A4-082 (VHH) VHH: VQLQESGGGLVQPGGSLRLSCAASGSRFSLNTMGWYRQAPGKQRELVATVTRGGSTKYADFVKGRFTISRDNAKNTVYLQMNSLRPEDTAVYYCHVDELRESGWTTSNLWGQGTQVTVSS    0.00017
A4-056 (VHH) VHH: VQLQESGGGLVQPGGSLRLSCAASGSAFSINTMGWYRQAPGKQREKVAAVTRGGSTNYADSVKGRFTISRDNAKNTVYLQMNSLRPEDTAVYYCHVDEVRQSSWTTSNLWGQGTQVTVSS    0.00779
A4-074 (VHH) VHH: VQLQESGGGLVQSGGSLRLSCAASGSMFSLNTMGWYRQAPGKQRELVATITRGGGTSYADSVKGRFTISRDNAKNTVYLQMNSLRPEDTAVYYCHVDELRQSSWTTSNLWGQGTQVTVSS    0.00181
A4-096 (VHH) VHH: VQLQESGGGLVQPGGSLRLSCIASGSSFSANTMGWYRQAPGKQRELVATITRGGNTNYGDSVKGRFTISRDNAKNTVYLQMNSLRPEDTAVYYCHIDEIRESTWTTSNLWGQGTQVTVSS    0.00169
A4-054 (VHH) VHH: VQLQESGGGLVQPGGSLRLSCAASGSAFSINTMGWYRQAPGKQRELVAAVTRGGSTNYADSVKGRFTISRDNAKNTVYLQMNSLRPEDTAVYYCHVDEVRQSSWTTSNLWGQGTQVTVSS    0.0018

So what's the measured koff for this one? A4-081 (VHH) VHH: VQLQESGGGLVQPGGSLRLSCAASGSRFSLNTMGWYRQAPGKQRELVATVTRGGSTNYADSVKGRFTISRDNAKNTVYLQMNSLRPEDTAVYYCHVDELRESGWTTSNLWGQGTQVTVSS
0.00105

Could you do the same for A4-091 (VHH) VHH: VQLQESGGGLVQPGGSLRLSCAASGSRFSINTMGWYRQRAGKQRELVATVTRDGSTTYANSVKGRFTISRDNAKNTVYLQMNSLRPEDTAVYYCHVDELRQSTWTTSNLWGQGTQVTVSS , please?
0.00091
